The measured values listed here are drawn from patent US20250145596A1.

test.target: GLP-1 Receptor (Homo sapiens)
Construct: host or cells: HEK293/CRE-Luc
Sequence (P43220 24-463): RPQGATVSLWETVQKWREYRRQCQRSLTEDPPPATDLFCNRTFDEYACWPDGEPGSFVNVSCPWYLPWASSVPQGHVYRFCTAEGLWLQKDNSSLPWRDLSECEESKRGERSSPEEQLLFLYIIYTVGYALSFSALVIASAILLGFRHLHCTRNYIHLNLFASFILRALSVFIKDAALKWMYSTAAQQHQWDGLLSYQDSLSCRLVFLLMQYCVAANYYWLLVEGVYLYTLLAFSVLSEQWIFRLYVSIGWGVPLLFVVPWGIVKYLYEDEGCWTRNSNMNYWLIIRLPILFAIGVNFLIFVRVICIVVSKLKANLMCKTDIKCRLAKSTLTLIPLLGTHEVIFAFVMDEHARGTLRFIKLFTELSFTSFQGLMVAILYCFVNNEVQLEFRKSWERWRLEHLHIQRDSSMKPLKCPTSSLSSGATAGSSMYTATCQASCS
experiment.notes: GLP-1R agonist cAMP stimulation assay
Format: cell-based
recorded.conditions: HEK293/CRE-Luc cell line stably expressing the GLP-1 Receptor; 30 min at 37° C.; cAMP dynamic 2 Kit
pEC50: −log10 of the molar value.
property: pEC50

Prompt: Requested field: pEC50. Item: CC1(c2ccc(Cl)cc2F)Oc2cccc(C3CCN(Cc4ncc(-c5nnn[nH]5)cc4C(F)(F)F)CC3)c2O1 (stereo not drawn)
Completion: < 7.00

Prompt: Entry C[C@]1(c2ccc(Cl)cc2F)Oc2cccc(C3CCN(Cc4ncc(-c5nnc(C(F)(F)F)[nH]5)cc4CC4(C#N)CC4)CC3F)c2O1 (single isomer, unassigned) [Example 28] has what pEC50?
Completion: > 9.00

Prompt: Look at this molecule and give its reported pEC50. CC1(c2ccc(Cl)cc2Cl)Oc2cccc(C3CCN(Cc4ncc(-c5nnc(C(F)(F)F)[nH]5)cc4CC4(C#N)CC4)CC3)c2O1 (stereo not drawn) [Example 1]
Completion: > 9.00

Prompt: Can you look up the measured pEC50 of CC1(c2ccc(C(F)(F)F)cc2F)Oc2cccc(C3CCN(Cc4ncc(-c5nnc(C(F)(F)F)[nH]5)cc4CC4(C#N)CC4)CC3)c2O1 (stereo not drawn) for me?
Completion: > 9.00

Prompt: Fill blank: measured pEC50 of the molecule Cc1cc(CN2CCC(c3cccc4c3OC(C)(c3ccc(Cl)cc3F)O4)CC2)ncc1-c1nnn[nH]1 (stereo not drawn) is ____.
Completion: < 7.00

Prompt: I'd like to know its pEC50. The molecule in question is C[C@]1(c2ccc(Cl)cc2F)Oc2cccc(C3CCN(Cc4ncc(C(=O)O)cc4CC4(C#N)CC4)CC3)c2O1
Completion: 7.00 to 9.00
